Species on record: Homo sapiens
Test: Selectivity for c-Src compared to bFGFR
This listing pairs compounds with measured Ratio.
No unit in the answer, please; the number alone is enough.

Below: 3 compounds and their reported Ratio.
>  <Smiles entry>
Cc1cc(Nc2ncc3cc(-c4c(Cl)cccc4Cl)c(=O)n(C)c3n2)ccc1F

>  <Value measured>
55.6

$$$$
>  <Smiles entry>
Cn1c(=O)c(-c2c(Cl)cccc2Cl)cc2cnc(Nc3ccc(N4CCOCC4)cc3)nc21

>  <Value measured>
11.8

$$$$
>  <Smiles entry>
CCOc1ccc(Nc2ncc3cc(-c4c(Cl)cccc4Cl)c(=O)n(C)c3n2)cc1

>  <Value measured>
27.7

$$$$

Next:
Form field: reported Ratio of CCN(CCOc1ccc(Nc2ncc3cc(-c4c(Cl)cccc4Cl)c(=O)n(C)c3n2)cc1)C(C)=O
27

====

System: HT-29
Test: Inhibition of HT-29 clonogenic growth in soft agar with pretreatment
Type: functional, cell-based
Measurement context: Homo sapiens
Mark label 1 only for IC50 values smaller than 1 µM; exact matches and larger values are label 0.

Below are worked cases with known answers.
>  <Smiles entry>
Cn1c(=O)c(-c2c(Cl)cccc2Cl)cc2cnc(Nc3ccc(F)cc3)nc21

>  <Answer label>
label 0

$$$$
>  <Smiles entry>
Cc1cc(Nc2ncc3cc(-c4c(Cl)cccc4Cl)c(=O)n(C)c3n2)ccc1F

>  <Answer label>
label 1

$$$$
>  <Smiles entry>
CSc1cccc(Nc2ncc3cc(-c4c(Cl)cccc4Cl)c(=O)n(C)c3n2)c1

>  <Answer label>
label 0

$$$$
>  <Smiles entry>
CCOc1ccc(Nc2ncc3cc(-c4c(Cl)cccc4Cl)c(=O)n(C)c3n2)cc1

>  <Answer label>
label 1

$$$$
>  <Smiles entry>
Cn1c(=O)c(-c2c(Cl)cccc2Cl)cc2cnc(Nc3ccc(N4CCOCC4)cc3)nc21

>  <Answer label>
label 0

$$$$

Now examine the next entry.
Regarding CCN(CCOc1ccc(Nc2ncc3cc(-c4c(Cl)cccc4Cl)c(=O)n(C)c3n2)cc1)C(C)=O , kindly confirm whether its IC50 is beneath 1 µM.
label 0

====

Below: a set of entries, each annotated with reported IC50.
Test system: HCT-8
Test: Inhibition of HCT-8 clonogenic growth in soft agar without pretreatment
Assay type: functional, cell-based
Measurement context: Homo sapiens
Kindly answer with a numeric value in nM, unit omitted.

>  <Smiles entry>
CSc1cccc(Nc2ncc3cc(-c4c(Cl)cccc4Cl)c(=O)n(C)c3n2)c1

>  <IC50 / nM>
1300

$$$$

Quick one: IC50 for CCOc1ccc(Nc2ncc3cc(-c4c(Cl)cccc4Cl)c(=O)n(C)c3n2)cc1 ?
1260

How about Cc1cc(Nc2ncc3cc(-c4c(Cl)cccc4Cl)c(=O)n(C)c3n2)ccc1F ?
260

Input Cn1c(=O)c(-c2c(Cl)cccc2Cl)cc2cnc(Nc3ccc(F)cc3)nc21
1150

Can you handle Cn1c(=O)c(-c2c(Cl)cccc2Cl)cc2cnc(Nc3ccc(N4CCOCC4)cc3)nc21 next?
1260

====

Species on record: Homo sapiens
Test: Selectivity for c-Src compared to PDGFR
Experimental readout: Ratio
Just the number, please.

Endpoint output: Ratio of Cn1c(=O)c(-c2c(Cl)cccc2Cl)cc2cnc(Nc3ccc(N4CCOCC4)cc3)nc21 . Value?
76.2

Another compound to check: CCOc1ccc(Nc2ncc3cc(-c4c(Cl)cccc4Cl)c(=O)n(C)c3n2)cc1
144

Here is the next compound: CCN(CCOc1ccc(Nc2ncc3cc(-c4c(Cl)cccc4Cl)c(=O)n(C)c3n2)cc1)C(C)=O
51.2

What do we get for Cc1cc(Nc2ncc3cc(-c4c(Cl)cccc4Cl)c(=O)n(C)c3n2)ccc1F ?
84.9

====

System under test: Platelet-derived growth factor receptor (Homo sapiens, UniProt P09619+P16234)
Test: Inhibition of PDGFR
Experimental readout: IC50 (µM)
Numbers only; they are read as µM.

>  <Smiles entry>
Cn1c(=O)c(-c2c(Cl)cccc2Cl)cc2cnc(Nc3ccc(N4CCOCC4)cc3)nc21

>  <IC50 (µM)>
0.636

$$$$
>  <Smiles entry>
CCN(CCOc1ccc(Nc2ncc3cc(-c4c(Cl)cccc4Cl)c(=O)n(C)c3n2)cc1)C(C)=O

>  <IC50 (µM)>
0.463

$$$$
>  <Smiles entry>
Cc1cc(Nc2ncc3cc(-c4c(Cl)cccc4Cl)c(=O)n(C)c3n2)ccc1F

>  <IC50 (µM)>
1.43

$$$$

Query compound follows.
Any idea what IC50 came out for CCOc1ccc(Nc2ncc3cc(-c4c(Cl)cccc4Cl)c(=O)n(C)c3n2)cc1 on Platelet-derived growth factor receptor (Homo sapiens, UniProt P09619+P16234)?
2.34

The measurements presented in this section are drawn from ChEMBL document CHEMBL1150972.
